- System: MS2 coat protein
- test.name: apparent KD of MS2 coat protein; higher = weaker reporter binding
- measurement.conditions: Eterna round: R107; input ligand: tryptophan 2.4 mM

# chain.sequence, unit.name, apparent KD of MS2 coat protein
data = [
    ("CGUGGUUGAGAUGGGCCUCUGAUAAGUCUGCGAGGACCGGUACGGCCGCCACUCGAGGACAUGAGGAUCACCCAUGUACUUCGCG [Vequar]", "nM", 19.2),
    ("UGUAUGUGAUCUGAUACCAGAGUGAAUAAACGCGAAAGCGCCUGAGGAUCACCCUGGUAACUCCCUUGGCAGCAGAUCGCAUACU", "nM", 1390),
    ("CUCGAGGCCGGUGAUACCAGACACGAAACUAUACAUGAGGAUCACCCAUGUCAAACAACGGUCCCUUGGCAGCAUGGGUGUAUCC [Enzabemage]", "nM", 33.3),
    ("CUAUGCAGGUCGGCCGCCACUACACACAUGAGGAUCACCCAUGUAGUUACUGGGUGAAGUGGCAGUAGGACCGGGACCUGCACAU [Brourdmod15]", "nM", 229),
    ("GUGCGGUUUGAUGAUACCAGAUGUGGUGGGAACAUGAGGAUCACCCAUGUUGUGAAACAGGUCCCUUGGCAGCAUGAGUGAGCUU [TheoB-ms2@32-1]", "nM", 55.5),
    ("GGAUAGGACACGGCCGCCACUACCUAGGAUACUAGCAACAUUUGGGUAUAUGAGGAUCACCCAUAUAGGACCGGGUGUCCUAUCG", "nM", 102),
    ("AUACAUGAGGAUCACCCAUGUUAUAGUGAAGGAGCGACAUUUAGGUCAGGUAGGUCGCACUAUUGAAUUAUUAUCCUUAUUUCUU [JR_ExcArginiA_Sub020]", "nM", 15.7),
    ("ACCAUGUAAUCAGAUACCAGACAUCUUUUAAAUCAUAUUACAUGAGGAUCACCCAUGUUGGUCCCUUGGCAGCUGAAAUAUUUCA [JR_Nu_SSTheophyB_Sub025]", "nM", 529),
    ("CAUACUUUAGUAUGUAAUGUGGACAGUGAUACCAGAUACGAAAGUAUCCCUUGGCAGCACAACAUGAGGAUCACCCAUGUAUUUU [Theophylline A 3]", "nM", 19.2),
    ("GCCAGUCAUAGCAGGGCAAAUAUACUCGAAGGAGCGUCAUAGUAGGCAGGUAGGUCGCGAGACAUGAGGAUCACCCAUGUAGAGA [fffmullin]", "nM", 32.8),
    ("CUUGUUUAUGGAAGGAGCGCGAUUACAUAACAUGAGGAUCACCCAUGUAAGAAAUUAUUCAUGCAGGUAGGUCGCCAUGGGUGGG [Same State Arginine B GF7]", "nM", 120),
    ("CAAACAUGAGGAUCACCCAUGUAAUCAGAUACCAGUGACGAAAGUCACCCUUGGCAGCUGAGUACAUUAGUUCUAAGGUGUUUGA [EThA NP+V+V2 #6 +-Same Structure]", "nM", 35.7),
    ("CACAUGAGGAUCACCCAUGUCUGAACUGAAGGAGCGCUAAACAAGGCAGGUAGGUCGCGGAAUCCCGGGUGCAUAUGCACCCGGG [9.aA]", "nM", 21.4),
    ("CGAAAGCACAUGGGUUGCUUUCGACUGGAAGGAGCGAGCGAAAGCUCAGGUAGGUCGCCAGAAACAUGAGGAUCACCCAUGUAAU [(A)''-(M)'-(A)'(Arg1)-(Arg2)-(M1)-(M2)_Design10]", "nM", 22.4),
    ("GGGCGCUAUCCCGCGAGGGAUAGCGUUCGACGAGGACCGGUACGGCCGCCACUCGAACGAGUGGUGACAUGAGGAUCACCCAUGU [Naa]", "nM", 49.7),
    ("ACAUGAGGAUCACCCAUGUUAAGCAGGGUGCGAGGACCGGUACGGCCGCCACUCGGACAUUAUUACGAGUGAAUGGUAACGAUGU [#14 Exclusion Tryptophan A]", "nM", 21.7),
]
